Cited source for all entries: patent US9409864B2

target: native human TRPA1 receptors (Homo sapiens); construct: stably expressing native human TRPA1 receptors were used; endogenous in cells; host or cells: A549 human lung adenocarcinoma epithelial cell line; test: PF-4840154 (1 μM)-induced Ca2+ fluorescence measurements in A549 cell line; assay type: cell-based; details: against PF-4840154 (1 μM)-evoked [Ca2+]i mobilization, A549 cells
Sequence (O75762 whole entry): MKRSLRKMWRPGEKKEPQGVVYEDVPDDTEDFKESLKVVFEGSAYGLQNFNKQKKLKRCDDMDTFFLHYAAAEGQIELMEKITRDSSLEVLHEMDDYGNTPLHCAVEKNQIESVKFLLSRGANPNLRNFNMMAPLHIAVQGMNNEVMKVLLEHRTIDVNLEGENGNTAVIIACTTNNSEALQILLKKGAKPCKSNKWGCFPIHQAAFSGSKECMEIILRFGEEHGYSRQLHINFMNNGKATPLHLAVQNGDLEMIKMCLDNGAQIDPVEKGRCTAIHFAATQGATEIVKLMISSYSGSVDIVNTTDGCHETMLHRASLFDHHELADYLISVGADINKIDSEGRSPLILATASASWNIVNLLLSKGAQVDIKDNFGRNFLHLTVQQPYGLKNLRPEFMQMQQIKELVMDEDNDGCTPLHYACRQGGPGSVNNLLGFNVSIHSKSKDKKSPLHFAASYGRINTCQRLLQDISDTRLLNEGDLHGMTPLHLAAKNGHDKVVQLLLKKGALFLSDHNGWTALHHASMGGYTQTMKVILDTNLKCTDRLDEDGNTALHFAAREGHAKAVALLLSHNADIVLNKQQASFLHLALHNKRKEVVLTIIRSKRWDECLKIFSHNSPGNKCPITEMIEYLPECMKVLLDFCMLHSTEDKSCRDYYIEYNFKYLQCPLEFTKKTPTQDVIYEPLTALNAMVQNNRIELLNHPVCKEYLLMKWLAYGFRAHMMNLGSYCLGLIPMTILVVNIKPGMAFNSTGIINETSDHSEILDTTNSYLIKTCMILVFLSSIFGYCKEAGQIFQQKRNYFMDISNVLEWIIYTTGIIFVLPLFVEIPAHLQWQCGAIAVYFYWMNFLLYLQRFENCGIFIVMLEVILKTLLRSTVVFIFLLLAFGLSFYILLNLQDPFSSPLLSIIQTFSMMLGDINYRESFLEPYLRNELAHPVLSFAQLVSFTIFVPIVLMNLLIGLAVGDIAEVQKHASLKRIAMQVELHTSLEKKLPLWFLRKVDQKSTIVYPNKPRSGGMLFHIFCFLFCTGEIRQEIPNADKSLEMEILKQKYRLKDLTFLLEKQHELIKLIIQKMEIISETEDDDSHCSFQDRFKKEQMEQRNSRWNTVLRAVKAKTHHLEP
# key: entry, value: IC50
Kindly answer with a numeric value in nM, unit omitted.

> print(dat)
                           structure.string  endpoint  test.value
1  CCN(C1(C(=O)NCc2cc(-c3ccc(C(F)(F)F)cc3)nc(N3CCOCC3)c2)CC1)S(=O)(=O)c1ccc(F)cc1      IC50         660

INPUT: Field request: IC50 | item: CCN(C1(C(=O)NCc2cc(-c3ccc(C(F)(F)F)cc3)nc(N3CCN(CC4CC4)CC3)c2)CC1)S(=O)(=O)c1ccc(Cl)s1
OUTPUT: 327

INPUT: Field request: IC50 | item: CCN(C1(C(=O)NCc2cc(OC)nc(-c3ccc(C(F)(F)F)cc3)c2)CC1)S(=O)(=O)c1ccc(Cl)s1
OUTPUT: 19

INPUT: Bench note: what IC50 did C=C(C(=O)NCc1ccnc(-c2ccc(OC(F)(F)F)cc2)c1)N(CC)S(=O)(=O)c1ccc(F)cc1 show?
OUTPUT: 93

INPUT: Which IC50 is listed for CN(C1(C(=O)NCc2cccc(-c3ccc(OC(F)(F)F)cc3)c2)CC1)S(=O)(=O)c1ccc(F)cc1 ?
OUTPUT: 275

INPUT: Quick check: IC50 of C=C(C(=O)NCc1cc(-c2ccc(OC(F)(F)F)cc2)nc(N2CCCC2)c1)N(CC)S(=O)(=O)c1ccc(F)cc1 ?
OUTPUT: 93

INPUT: Give the measured IC50 of CCN(C1(C(=O)NCc2cc(-c3ccc(C(F)(F)F)cc3)nc(N3CCN(CC4CC4)CC3)c2)CC1)S(=O)(=O)c1ccc(F)cc1 .
OUTPUT: 338
